Tgt: Carbonic anhydrase 2 (Homo sapiens)
Assay procedure: Inhibition of wild-type human CA-II using p-nitrophenylacetate as substrate preincubated for 15 mins followed by substrate addition measured for 20 mins by absorbance based assay
In this section, each of the compounds is paired with its reported pKi.
Please note pKi is a logarithmic value: minus log10 of concentration in mol/L. Answer with that number alone.

Output pKi of O=c1cccccc1S 4.02

***
Dear colleague, please send me the reported pKi for O=c1cccccc1O when you can. 2.87

---

Tgt: Carbonic anhydrase 12 (Homo sapiens)
Sequence (O43570 whole entry): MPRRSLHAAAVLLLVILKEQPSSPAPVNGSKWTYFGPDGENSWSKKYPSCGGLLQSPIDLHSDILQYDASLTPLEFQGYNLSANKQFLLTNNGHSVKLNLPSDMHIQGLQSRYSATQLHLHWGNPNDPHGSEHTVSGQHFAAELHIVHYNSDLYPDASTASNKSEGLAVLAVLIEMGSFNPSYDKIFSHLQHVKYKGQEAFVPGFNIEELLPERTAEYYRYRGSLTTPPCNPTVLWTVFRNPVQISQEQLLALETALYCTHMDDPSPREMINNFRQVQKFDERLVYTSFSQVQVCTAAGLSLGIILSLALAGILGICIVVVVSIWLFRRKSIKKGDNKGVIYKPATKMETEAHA
pKi: −log10 of the molar value.
Let's look at some compounds and their measured pKi.

Provide pKi value for the following compound: O=c1cccccc1O < 4.00

Further cases:
Supply recorded pKi for CC(C)c1cccc(=O)c(O)c1 here. < 4.00

---

Assay procedure: Inhibition of […] human CA-II L198G mutant using p-nitrophenylacetate as substrate preincubated for 15 mins followed by substrate addition measured for 20 mins by absorbance based assay
Measurement label: pKi
For clarity, pKi is expressed as the negative log10 of concentration in mol/L.

Input O=c1cccccc1O , output reported pKi. 3.61

New cases:
Give pKi for the following compound: O=c1cccccc1S 4.21

---

Tgt: Carbonic anhydrase 2 (Homo sapiens, UniProt P00918)
Assay procedure: Inhibition of human CA-II incubated for 15 mins by stopped-flow CO2 hydration assay
Measurement label: Ki (µM)
Give the quantity in µM, number only.

Specify measured Ki for CC(C)c1cccc(=O)c(O)c1 [HINOKITIOL] . 90.6

---

// UniProtKB P35218 Ki records
Sequence (P35218 whole entry): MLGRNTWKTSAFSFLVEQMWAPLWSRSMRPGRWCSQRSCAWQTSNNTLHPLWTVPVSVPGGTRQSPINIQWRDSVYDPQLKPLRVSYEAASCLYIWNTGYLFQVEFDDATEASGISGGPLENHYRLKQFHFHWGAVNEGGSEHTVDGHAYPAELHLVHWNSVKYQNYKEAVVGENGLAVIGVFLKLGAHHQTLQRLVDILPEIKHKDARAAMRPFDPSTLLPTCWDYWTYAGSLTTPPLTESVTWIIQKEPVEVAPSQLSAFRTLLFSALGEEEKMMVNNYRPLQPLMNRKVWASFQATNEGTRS

Look up and report Ki, with UniProtKB P35218 as system, for O=c1cccccc1OCc1ccc(Br)cc1 > 100 µM

Under UniProtKB P35218, report Ki for O=c1cccccc1OCc1ccccc1[N+](=O)[O-] > 100 µM

Under UniProtKB P35218, report Ki for O=c1cccccc1O [TROPOLONE] > 100 µM

Specify Ki for CC(C)c1cccc(OCc2ccccc2C(F)(F)F)c(=O)c1 , system UniProtKB P35218. > 100 µM
